target: UniProtKB P37288; assay: Cellular in vitro assay for determining the vasopressin receptor activity (aequorin luminescence); details: CHO cell line transfected with the human V1a receptor; agonist [Arg8]-vasopressin; read-out: IC50 hV1a
Assay metric: pIC50
Friendly reminder that pIC50 comes from taking -log10 of the concentration in mol/L.

Below: 3 compounds and their reported pIC50.
Compound: NS(=O)(=O)OCC(NC(=O)Cn1nc(-c2ccc(Cl)cc2)n(C[C@H](O)C(F)(F)F)c1=O)c1cccc(C(F)(F)F)c1 (stereo partly drawn)
Test target: UniProtKB P37288
Assay metric: pIC50
Test value: 8.37

Compound: Cc1csc(-c2nn(CC(=O)NC(CO)c3cccc(Cl)c3F)c(=O)n2CC(C)C)c1Cl (stereo not drawn)
Test target: UniProtKB P37288
Assay metric: pIC50
Test value: 7.04

Compound: CS(=O)(=O)CC(NC(=O)Cn1nc(-c2ccc(Cl)cc2)n(C[C@H](O)C(F)(F)F)c1=O)c1ccccc1C(F)(F)F (single isomer, unassigned)
Test target: UniProtKB P37288
Assay metric: pIC50
Test value: 8.41

Task item: Please give measured pIC50 of the following entry: CCS(=O)(=O)NCC(NC(=O)Cn1nc(-c2ccc(Cl)cc2)n(C[C@H](O)C(F)(F)F)c1=O)c1cccc(Cl)c1Cl (single isomer, unassigned; diastereomer ii)
Reply: 8.52

Task item: Dear colleague, please send me the reported pIC50 for NC(=O)OCC(NC(=O)Cn1nc(-c2ccc(Cl)cc2)n(C[C@H](O)C(F)(F)F)c1=O)c1cccc(C(F)(F)F)c1 (single isomer, unassigned) when you can.
Reply: 8.28

Task item: Specify pIC50 for NC(=O)NCC(NC(=O)Cn1nc(-c2ccc(Cl)cc2)n(C[C@H](O)C(F)(F)F)c1=O)c1ccccc1C(F)(F)F (single isomer, unassigned) and stop.
Reply: 9.30

* * *

biological target: human V1a receptor (Homo sapiens); assay: Cellular in vitro assay for determining the vasopressin receptor activity (aequorin luminescence); details: CHO cell line transfected with the human V1a receptor; agonist [Arg8]-vasopressin; read-out: IC50 hV1a
Sequence (P37288 whole entry): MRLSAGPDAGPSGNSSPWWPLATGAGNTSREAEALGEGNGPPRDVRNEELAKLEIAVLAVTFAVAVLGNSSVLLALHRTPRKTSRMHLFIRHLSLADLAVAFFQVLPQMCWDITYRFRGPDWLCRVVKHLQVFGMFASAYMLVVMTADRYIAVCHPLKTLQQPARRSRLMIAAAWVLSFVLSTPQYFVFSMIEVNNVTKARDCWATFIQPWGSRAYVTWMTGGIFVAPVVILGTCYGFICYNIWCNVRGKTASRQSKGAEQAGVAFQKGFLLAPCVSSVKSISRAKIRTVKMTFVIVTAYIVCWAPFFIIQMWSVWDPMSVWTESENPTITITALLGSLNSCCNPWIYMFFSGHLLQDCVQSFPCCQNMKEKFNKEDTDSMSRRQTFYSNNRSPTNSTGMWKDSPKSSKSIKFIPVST
Assay metric: pIC50
Notebook: values listed as pIC50 are -log10 of the concentration (mol/L).

// solved cases for pIC50 follow
Compound: NC(=O)NCC(NC(=O)Cn1nc(-c2ccc(Cl)cc2)n(CCC(F)(F)F)c1=O)c1cccc(Cl)c1Cl (single isomer, unassigned) [Example 121]
Test value: 9.05

Compound: COc1ccccc1C(CCOC(N)=O)NC(=O)Cn1nc(-c2ccc(Cl)cc2)n(C[C@H](O)C(F)(F)F)c1=O (stereo partly drawn) [Example 188]
Test value: 8.09

Compound: O=C(Cn1nc(-c2ccc(Cl)cc2)n(Cc2ccccc2F)c1=O)NC(CO)c1cccc(F)c1F (stereo not drawn) [Example 184]
Test value: 7.14

Task item: Return value of pIC50 for input C=CCn1c(-c2ccc(Cl)cc2)nn(CC(=O)NC(CO)c2cccc(Cl)c2F)c1=O (stereo not drawn) [Example 168] , no commentary.
Reply: 7.06

Task item: Answer with the recorded pIC50 of NC(=O)OCC(NC(=O)Cn1nc(-c2ccc(Cl)cc2)n(CCC(F)(F)F)c1=O)c1cccc(C(F)(F)F)c1 (single isomer, unassigned) [Example 112] only.
Reply: 8.62

Task item: Query pIC50 for O=C(Cn1nc(-c2ccc(Cl)s2)n(Cc2ccccc2F)c1=O)NC(CO)c1cccc(F)c1F (stereo not drawn) [Example 185]
Reply: 7.26

Task item: Could you please provide reported pIC50 for O=C(Cn1nc(-c2ccc(Cl)cc2)n(C2CC2)c1=O)NC(CO)c1cccc(C(F)(F)F)c1 (racemic) [Example 96] ? Thanks!
Reply: 7.15

Task item: Give pIC50 for the following compound: O=C(Cn1nc(-c2ccc(Cl)cc2)n(C[C@H](O)C(F)(F)F)c1=O)NC(C[N+](=O)[O-])c1cccc(C(F)(F)F)c1 (single isomer, unassigned; diastereomer i) [Example 2]
Reply: 8.12

Task item: Quickly give me recorded pIC50 for O=C(Cn1nc(-c2ccc(Cl)cc2)n(C[C@H](O)C(F)(F)F)c1=O)NC(c1cccc(C(F)(F)F)c1)C(O)C(F)(F)F (mixture of isomers) [Example 78]
Reply: 7.68

Task item: Fill in pIC50 for record NC(=O)OCC(NC(=O)Cn1nc(-c2ccc(Cl)cc2)n(Cc2ccccc2F)c1=O)c1ccccc1C(F)(F)F (single isomer, unassigned) [Example 191]
Reply: 8.64

Task item: Determine from records and report pIC50 for C[C@@](CO)(NC(=O)Cn1nc(-c2ccc(Cl)cc2)n(C[C@H](O)C(F)(F)F)c1=O)c1cccc(C(F)(F)F)c1 [Example 44]
Reply: 7.36

Task item: Using the record for NC(=O)OCC(NC(=O)Cn1nc(-c2ccc(Cl)cc2)n(C[C@H](O)C(F)(F)F)c1=O)c1cccc(Cl)c1Cl (single isomer, unassigned) [Example 203] , state its measured pIC50.
Reply: 8.57

Task item: Recall and state the measured pIC50 for N#Cc1cccc([C@H](CO)NC(=O)Cn2nc(-c3ccc(Cl)cc3)n(C[C@H](O)C(F)(F)F)c2=O)c1 [Example 75] .
Reply: 6.29

Task item: Give the reported pIC50 for this compound. CN(C)S(=O)(=O)CC(NC(=O)Cn1nc(-c2ccc(Cl)cc2)n(C[C@H](O)C(F)(F)F)c1=O)c1cccc(C(F)(F)F)c1 (single isomer, unassigned) [Example 141]
Reply: 7.44

Task item: Please indicate pIC50 recorded for NCC(NC(=O)Cn1nc(-c2ccc(Cl)cc2)n(C[C@H](O)C(F)(F)F)c1=O)c1ccccc1C(F)(F)F (single isomer, unassigned; diastereomer ii) [Example 14]
Reply: 9.00

Task item: Identify measured pIC50 associated with O=C(Cn1nc(-c2ccc(Cl)cc2)n(C[C@H](O)C(F)(F)F)c1=O)NC(CO)c1ccccc1C(F)(F)F (single isomer, unassigned; diastereomer i) [Example 39]
Reply: 8.85

Task item: Give pIC50 for NC(=O)OCCC(NC(=O)Cn1nc(-c2ccc(Cl)cc2)n(C[C@H](O)C(F)(F)F)c1=O)c1cccc(Cl)c1Cl (single isomer, unassigned) [Example 73]
Reply: 7.97

Task item: Please list pIC50 recorded for the compound NC(=O)OCC(NC(=O)Cn1cc(-c2ccc(Cl)cc2)n(CC(O)C(F)(F)F)c1=O)c1ccccc1C(F)(F)F (stereo not drawn) [Example 207]
Reply: 8.48

* * *

molecular target: human V2 receptor (Homo sapiens); construct: co-transfected with promiscuous G-alpha-16); assay: Cellular in vitro assay for determining the vasopressin receptor activity (aequorin luminescence); conditions: CHO cell line transfected with the human V2 receptor (and Gα16); agonist [Arg8]-vasopressin; read-out: IC50 hV2
Sequence (P30518 whole entry): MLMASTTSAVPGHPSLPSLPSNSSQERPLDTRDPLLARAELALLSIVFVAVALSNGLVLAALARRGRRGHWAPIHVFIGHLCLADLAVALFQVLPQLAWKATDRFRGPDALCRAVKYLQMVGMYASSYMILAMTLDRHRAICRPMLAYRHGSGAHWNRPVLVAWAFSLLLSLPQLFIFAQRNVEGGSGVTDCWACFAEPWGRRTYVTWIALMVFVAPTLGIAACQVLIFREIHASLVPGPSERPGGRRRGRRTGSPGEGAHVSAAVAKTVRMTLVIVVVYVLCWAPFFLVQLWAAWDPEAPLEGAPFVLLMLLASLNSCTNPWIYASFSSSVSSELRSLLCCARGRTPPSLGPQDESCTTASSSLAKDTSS
pIC50: −log10 of the molar value.
Would you please tag the item class 1 when its pIC50 is 8 or above, and class 0 when it is below?

// below: answered compounds
Compound: NC(=O)OCC(NC(=O)Cn1nc(-c2ccc(Cl)cc2)n(C[C@H](O)C(F)(F)F)c1=O)c1cccc(C(F)(F)F)c1 (single isomer, unassigned)
Category: class 1
--
Compound: O=C(Cn1nc(-c2ccc(Cl)cc2)n(C[C@H](O)C(F)(F)F)c1=O)NC(CO)c1cccc(F)c1F (some centres unmarked)
Category: class 0

Task item: Check the entry NC(=O)OCC(NC(=O)Cn1cc(-c2ccc(Cl)cc2)n(CC(O)C(F)(F)F)c1=O)c1ccccc1C(F)(F)F (centres unmarked) : does pIC50 equal or exceed 8?
Reply: class 0

Task item: Is the recorded value of pIC50 equal to or greater than 8 for this compound? CS(=O)(=O)NCC(NC(=O)Cn1nc(-c2ccc(Cl)cc2)n(C[C@H](O)C(F)(F)F)c1=O)c1ccccc1Cl (single isomer, unassigned)
Reply: class 1

* * *

Recorded pIC50 by entry
Biological target: human V1a receptor (Homo sapiens)
Experiment: Cellular in vitro assay for determining the vasopressin receptor activity (aequorin luminescence)
Details: CHO cell line transfected with the human V1a receptor; agonist [Arg8]-vasopressin; read-out: IC50 hV1a
Source text: B-1. Cellular In Vitro Assay for Determining the Vasopressin Receptor Activity The identification of agonists and antagonists of the V1a and V2 vasopressin receptors from humans and rats and also the quantification of the activity of the substances described here took place using recombinant cell lines. These cells derive originally from a hamster ovary epithelial cell (Chinese Hamster Ovary, CHO K1, ATCC: American Type Culture Collection, Manassas, Va. 20108, USA). […]
In plain terms, pIC50 is the concentration in mol/L turned into minus its base-10 logarithm.

Compound: NC(=O)NCC(NC(=O)Cn1nc(-c2ccc(Cl)cc2)n(C[C@H](O)C(F)(F)F)c1=O)c1cccc(C(F)(F)F)c1 (single isomer, unassigned) [Example 57]
pIC50: 8.54

Task item: State its pIC50: CC(=O)NCC(NC(=O)Cn1nc(-c2ccc(Cl)cc2)n(C[C@H](O)C(F)(F)F)c1=O)c1cccc(C(F)(F)F)c1 (mixture of isomers) [Example 20]
Reply: 8.82

Task item: Return value of pIC50 for input O=C(Cn1nc(-c2ccc(Cl)cc2)n(CC2CCCCC2)c1=O)NC(CO)c1cccc(Cl)c1F (stereo not shown) [Example 182] , no commentary.
Reply: 6.52

Task item: Give a short answer stating reported pIC50 for NC(=O)OCC(NC(=O)Cn1nc(-c2ccc(Cl)cc2)n(C[C@H](O)C(F)(F)F)c1=O)c1ccccc1Cl (stereo partly shown) [Example 53] .
Reply: 8.82
